Cited source: ChEMBL document CHEMBL3627684

ASSAYED_TARGET: Acetyl-CoA carboxylase 1 (Rattus norvegicus, UniProt P11497)
pIC50: −log10 of the molar value.
Tag: class 1 if measured pIC50 is not below 6, class 0 if it is.

Consider the following illustrative entries.
Cc1cc(C(=O)N2CCC3(CC2)CCN(C(=O)OCC(C)(C)C)[C@H]3C)cc2cn[nH]c12: class 1
Cc1cc(C(=O)N2CCC3(CC2C)C[C@H](C)N(C(=O)OCC(C)(C)C)C3)cc2cn[nH]c12 (stereo partly specified): class 0
Cc1cc(C(=O)N2CCC3(CC2)CN(C(=O)OC(C)(C)C)C3C)cc2cn[nH]c12 (stereo unspecified): class 1
Cc1cc(C(=O)N2CCC3(CCN(C(=O)OC(C)(C)C)C3)CC2)cc2cn[nH]c12: class 1
Cc1cc(C(=O)N2CC3(CN(C(=O)OC(C)(C)C)C3)C2)cc2cn[nH]c12: class 0

Would you say Cc1cc(C(=O)N2CCC3(CC2C)C[C@@H](C)N(C(=O)OCC(C)(C)C)C3)cc2cn[nH]c12 (stereo partly specified) shows pIC50 at minimum 6?
class 1

Would you say "Cc1cc(C(=O)N2CCC3(CC2)CN(C(=O)OC(C)(C)C)C3)cc2cn[nH]c12" shows pIC50 at minimum 6?
class 1

Would you say Cc1cc(C(=O)N2CCC3(CC2C)CN(C(=O)OC(C)(C)C)C3)cc2cn[nH]c12 (stereo unspecified) shows pIC50 at minimum 6?
class 0

Would you say "Cc1cc(C(=O)N2CCC3(CC2)CN(C(=O)OCC(C)(C)C)C3)cc2cn[nH]c12" shows pIC50 at minimum 6?
class 1

Would you say "Cc1cc(C(=O)N2CCC3(CCN(C(=O)OCC(C)(C)C)C3)CC2)cc2cn[nH]c12" shows pIC50 at minimum 6?
class 1

Would you say Cc1cc(C(=O)N2CCC3(CCN(C(=O)OC(C)(C)C)C3)CC2C)cc2cn[nH]c12 (stereo in doubt; 3.3.2) shows pIC50 at minimum 6?
class 0

----------
MEASUREMENT_DESCRIPTION: Intrinsic clearance in human liver microsomes
TEST_READOUT: CLint scaled

Cc1cc(C(=O)N2CCC3(CC2)CN(C(=O)O[C@H](C)c2ccccc2)C3)cc2cn[nH]c12: 64 mL/min/kg
Cc1cc(C(=O)N2CCC3(CC2)CN(C(=O)OC(C)(C)C)C3)cc2cn[nH]c12: < 9 mL/min/kg
Cc1cc(C(=O)N2CCC3(CCN(C(=O)OC(C)(C)C)C3)CC2)cc2cn[nH]c12: 32 mL/min/kg
Cc1cc(C(=O)N2CCC3(CCN(C(=O)O[C@H](C)c4ccccc4)C3)CC2)cc2cn[nH]c12: 117 mL/min/kg
Cc1cc(C(=O)N2CCC3(CCN(C(=O)OC(C)(C)C)CC3)C2)cc2cn[nH]c12: 94 mL/min/kg

Return CLint scaled (reported value) for this compound: "Cc1cc(C(=O)N2CCC3(CC2)CCN(C(=O)OCC(C)(C)C)[C@H]3C)cc2cn[nH]c12"
106 mL/min/kg

Return CLint scaled (reported value) for this compound: "Cc1cc(C(=O)N2CC3(CCN(C(=O)OC(C)(C)C)CC3)C2)cc2cn[nH]c12"
19 mL/min/kg

Return CLint scaled (reported value) for this compound: Cc1cc(C(=O)N2CCC3(CC2C)CN(C(=O)OC(C)(C)C)C3)cc2cn[nH]c12 (stereo not given)
46 mL/min/kg

Return CLint scaled (reported value) for this compound: Cc1cc(C(=O)N2CCC3(CC2)CN(C(=O)OC(C)(C)C)C3C)cc2cn[nH]c12 (stereo not given)
60 mL/min/kg

Return CLint scaled (reported value) for this compound: "Cc1cc(C(=O)N2CCC3(CCN(C(=O)OCC(C)(C)C)C3)CC2)cc2cn[nH]c12"
117 mL/min/kg
